- EXPERIMENTAL_SYSTEM: UniProt:P35968
- Sequence (P35968 whole entry): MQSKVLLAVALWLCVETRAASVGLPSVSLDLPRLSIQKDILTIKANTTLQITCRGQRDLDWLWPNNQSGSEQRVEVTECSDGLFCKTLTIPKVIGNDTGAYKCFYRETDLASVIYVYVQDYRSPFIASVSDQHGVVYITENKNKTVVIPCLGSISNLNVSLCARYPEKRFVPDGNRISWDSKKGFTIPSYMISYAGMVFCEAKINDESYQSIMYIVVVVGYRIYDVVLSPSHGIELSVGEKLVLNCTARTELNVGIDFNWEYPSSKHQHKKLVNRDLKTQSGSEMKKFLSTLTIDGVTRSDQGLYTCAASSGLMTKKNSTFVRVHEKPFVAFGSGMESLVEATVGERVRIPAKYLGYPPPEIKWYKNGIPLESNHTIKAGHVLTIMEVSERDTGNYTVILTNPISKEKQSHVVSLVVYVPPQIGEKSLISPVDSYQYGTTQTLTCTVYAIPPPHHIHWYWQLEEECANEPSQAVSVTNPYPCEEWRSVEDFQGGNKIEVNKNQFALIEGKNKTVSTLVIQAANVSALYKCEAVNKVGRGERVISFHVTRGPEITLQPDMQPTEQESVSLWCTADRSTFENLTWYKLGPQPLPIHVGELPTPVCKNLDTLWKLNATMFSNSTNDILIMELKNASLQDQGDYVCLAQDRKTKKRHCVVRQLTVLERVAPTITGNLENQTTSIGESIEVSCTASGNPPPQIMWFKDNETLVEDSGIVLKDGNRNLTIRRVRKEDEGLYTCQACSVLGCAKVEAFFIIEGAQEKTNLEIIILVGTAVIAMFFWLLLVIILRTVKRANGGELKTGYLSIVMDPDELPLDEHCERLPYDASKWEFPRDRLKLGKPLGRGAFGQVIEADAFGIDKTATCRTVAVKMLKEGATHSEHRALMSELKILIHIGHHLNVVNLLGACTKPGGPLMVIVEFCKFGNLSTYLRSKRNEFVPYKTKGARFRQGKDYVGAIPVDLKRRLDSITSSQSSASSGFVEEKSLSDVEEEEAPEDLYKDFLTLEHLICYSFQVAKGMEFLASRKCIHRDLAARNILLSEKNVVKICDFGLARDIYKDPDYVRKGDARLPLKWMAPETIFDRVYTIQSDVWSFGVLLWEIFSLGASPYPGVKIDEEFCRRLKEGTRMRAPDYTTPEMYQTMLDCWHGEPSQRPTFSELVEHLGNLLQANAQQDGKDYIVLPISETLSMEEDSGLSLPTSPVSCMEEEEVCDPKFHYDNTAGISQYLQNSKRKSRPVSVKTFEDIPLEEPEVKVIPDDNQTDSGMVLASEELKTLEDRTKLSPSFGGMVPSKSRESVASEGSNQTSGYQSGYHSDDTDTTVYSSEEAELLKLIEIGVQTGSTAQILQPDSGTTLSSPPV
- PROCEDURE_TEXT: Inhibition of VEGF stimulated phosphorylation of KDR on tyrosine residues in human kidney cells expressing vascular endothelial growth factor receptor 2
- Type: cell-based
TEST_READOUT: IC50 (µM)

These solved cases illustrate the format of a correct answer.
[
  {
    "MOLECULE": "c1ccc(-c2ccn3c(-c4cncs4)cnc3c2)cc1",
    "TEST_READOUT": "IC50",
    "RECORDED_VALUE": 0.099
  },
  {
    "MOLECULE": "NC(=O)N1CCN(Cc2ccc(-c3ccn4c(-c5ccccc5)cnc4c3)cc2)CC1",
    "TEST_READOUT": "IC50",
    "RECORDED_VALUE": 0.069
  },
  {
    "MOLECULE": "CNC(=O)N1CCN(Cc2ccc(-c3ccn4c(-c5ccccc5)cnc4c3)cc2)CC1",
    "TEST_READOUT": "IC50",
    "RECORDED_VALUE": 0.052
  }
]

[I] c1ccc(-c2ccn3c(-c4nccs4)cnc3c2)cc1
[II] c1ccc(-c2ccn3c(-c4ccncc4)cnc3c2)cc1
Compare reported IC50 values for I and II . Which is lower? I would appreciate it if you answered with the label of your choice. I
(I: 0.042 µM, II: 0.145 µM)

[A] c1ccc(-c2ccn3c(-c4cnsc4)cnc3c2)cc1
[B] CS(=O)(=O)N1CCN(Cc2ccc(-c3ccn4c(-c5ccccc5)cnc4c3)cc2)CC1
[C] O=c1cc(-c2ccn3c(-c4ccccc4)cnc3c2)ccn1CCCN1CCCCC1
[D] O=c1cc(-c2ccn3c(-c4ccccc4)cnc3c2)ccn1CCCO
[E] c1ccc(-c2ccn3c(-c4cccnc4)cnc3c2)cc1
Hello, I need these entries ordered by IC50, highest reading first. Thanks! # list labels per requested ordering E, D, A, C, B
